I'd appreciate it if you could supply viability increase values for the items below.
# assayRemarks: viability gain of MRP-1-high H69AR cells under doxorubicin, pilot screen, MRP-1 activator project, CellTiter-Glo, duplicate (AID 807);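 note: compound pretreatment 18-22 h then 72 h combined with doxorubicin; 0% = doxorubicin alone and 100% = vehicle without doxorubicin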
# appliedConditions: H69AR viability with doxorubicin, CellTiter-Glo luminescence; at 10 µM; stronger effect = higher value
The reply should be a number in %, with the unit left off.

[Q] Tell me measured viability increase for COC(=O)C(C)Sc1ccc2nnc(-c3cccc(F)c3)n2n1 (stereo unspecified) please.
[A] -3.98

[Q] Give viability increase for the following molecule: CC12CC(NC(=O)N1CCc1ccccc1)c1ccccc1O2 (stereo unspecified)
[A] -3.43

[Q] State its viability increase for this molecule: `CCN1CCN(C(=O)Cn2ncc3c2-c2ccccc2OC3)CC1`
[A] -1.74

[Q] Output viability increase of `COc1ccc(OC)c2sc(NC(=O)C(C)C)nc12`
[A] -1.14

[Q] Please indicate viability increase recorded for `CCn1cc(Cl)c(C(=O)Nc2nc3ccccc3n2CCN2CCCCC2)n1`
[A] -4.57

[Q] Write down viability increase measured for item COc1cc(C2NC(=O)NC(C)=C2C(=O)OCc2ccc(C)cc2)cc(OC)c1O (stereo unspecified)
[A] 3.29

[Q] Answer with the recorded viability increase of `Cc1ccc(C)c(C(=O)COC(=O)c2ccc(Br)o2)c1` only.
[A] -0.26

[Q] Output measured viability increase for this item: Cc1ccc(-n2c(SCC(=O)Nc3cc(C)on3)nc3c(c2=O)SC(C)C3)cc1 (stereo unspecified)
[A] -2.56

[Q] Please supply the value of reported viability increase for the item `O=C(Cn1cc2c(n1)CCCC2)NC1CCCCCC1`
[A] -1.14

[Q] Look up and report measured viability increase for this entry: `S=c1sc2c(N3CCOCC3)ncnc2n1-c1ccccc1`
[A] -3.12

[Q] Give recorded viability increase. `CCn1c2ccccc2c2nnc(SCN3C(=O)c4ccccc4C3=O)nc21`
[A] -3.94

[Q] Recall and state the measured viability increase for C=CCOC(=O)C1=C(C)NC(=O)NC1c1ccc(Cl)cc1 (stereo unspecified) .
[A] 0.95

[Q] Please give the documented viability increase of `COc1ccc(-n2c(SCC(=O)Nc3cc(C)on3)nc3c(c2=O)SCC3)cc1`
[A] 0.28

[Q] // Input: `CCCc1nc(SCC(=O)Nc2cc(C)on2)c2c(=O)n(C)c(=O)n(C)c2n1` . Output its viability increase only.
[A] -1.05

[Q] Consider the molecule COC(=O)C1C(=O)c2c([nH]c(C(=O)OC3CCCC3C)c2C)CC1C (stereo unspecified) . State its measured viability increase.
[A] 3.21

[Q] Give viability increase for `Cn1c(Cn2c(=O)sc3ccccc32)nnc1SCC(=O)Nc1cccc(F)c1`
[A] -2.58

[Q] Consider the molecule `CCC(=O)Nc1c(C)cc(C)cc1Cl` . State its measured viability increase.
[A] -0.97

[Q] Consider the molecule N#CC1=C(SCc2ccccc2)NC(=O)CC1c1ccc(O)cc1 (stereo unspecified) and give its recorded viability increase.
[A] -2.66

[Q] Report measured viability increase; entry is `CCc1cc(C(=O)COc2ccccc2F)c(O)cc1O`
[A] -2.43

[Q] For `COc1ccc(-c2nc(CSCC(=O)N3CCC(C(N)=O)CC3)c(C)o2)cc1OC` , write its viability increase.
[A] -0.52

[Q] For the molecule `CC(=O)Oc1ccc(C(=O)Nc2nccs2)cc1` , give its reported viability increase.
[A] -4.75

[Q] Provide viability increase value for the following molecule: CC1CCN(S(=O)(=O)N2CCC(C(=O)N3CCC(N(C)CC4CCCO4)CC3)CC2)CC1 (stereo unspecified)
[A] -1.16

[Q] Tell me viability increase reported for CCOC(=O)N1CCC(N2CC34C=CC(O3)C(C(=O)Nc3ccc(C(C)C)cc3)C4C2=O)CC1 (stereo unspecified)
[A] 3.15

[Q] Determine from records and report viability increase for O=C(Cn1cc2c(n1)CCCC2)NCC1CCCO1 (stereo unspecified)
[A] 0.41

[Q] For the molecule Cc1ccc(S(=O)(=O)N2C3C=CC(C3)C2C(=O)O)cc1 (stereo unspecified) , give its measured viability increase value.
[A] -0.3

[Q] Supply viability increase value. Item: `CCN(CC)c1ccc(NC(=O)CN2C(=O)CSc3ncccc32)c(C)c1`
[A] 0.51

[Q] Please give measured viability increase of the following entry: `COc1ccc(Cn2nnc3c(=O)[nH]c(C(=O)NCCc4ccc(F)cc4)nc32)cc1OC`
[A] -0.55

[Q] Quickly give me recorded viability increase for CCc1cc2c(NCC3CCCO3)ncnc2s1 (stereo unspecified)
[A] 0.8

[Q] Please supply the value of reported viability increase for the item N#CC1=C2SCN(c3ccccc3)CN2C(=O)CC1c1c(Cl)cccc1Cl (stereo unspecified)
[A] -7.7

[Q] Return reported viability increase. Input molecule: O=C(NCCN1CCCCCC1)C1CCC(CNS(=O)(=O)c2cccc3cccnc23)CC1 (stereo unspecified)
[A] -3.58

[Q] Quote viability increase reported for `O=C(COC(=O)c1ccc(S(=O)(=O)NCc2ccco2)cc1)Nc1ccccc1OC(F)F` please.
[A] -2.64

[Q] // Input: `CC(C)NS(=O)(=O)c1ccc(CCC(=O)NCc2cccnc2)cc1` . Output its viability increase only.
[A] -0.9

[Q] Supply reported viability increase belonging to this molecule: `O=C(CCn1c(=O)oc2ccccc21)NCCCN1CCCC1=O`
[A] 1.26

[Q] Entry `O=C(NC1CCCCC1)N1CCCCCC1` needs its viability increase filled in; supply it.
[A] -0.52

[Q] State its viability increase: CCN(CC)CCCNC(=O)Cn1cc2c(n1)CCC(C)C2 (stereo unspecified)
[A] -1.22

[Q] Return reported viability increase. Input molecule: `COc1ccc(C(=O)N2CCN(c3ccc(C)cc3C)CC2)cc1OC`
[A] 3.24

[Q] Write down viability increase measured for item COCCNC(=O)C1CC(=O)N(c2ccc(F)c(Cl)c2)C1 (stereo unspecified)
[A] 0.07

[Q] // Input: `CS(=O)(=O)N(CC(=O)NCc1ccco1)c1ccc(Cl)c(C(F)(F)F)c1` . Output its viability increase only.
[A] -3.58

[Q] Please look at this molecule and report its viability increase: `Cc1cc(C)cc(N(CC(=O)N2CCc3ccccc32)S(=O)(=O)c2c(C)noc2C)c1`
[A] -4.52

[Q] Quote viability increase reported for `Cc1cc(Nc2ccc(C(C)C)cc2)n2ncnc2n1` please.
[A] -0.35

[Q] Input `CCOC(=O)c1ccc(NC(=O)c2nccnc2C(=O)O)cc1` , output reported viability increase.
[A] -1.42

[Q] Name the recorded viability increase of the item `COc1cc(SC)ccc1C(=O)Nc1ccc2c(c1)CCN2S(C)(=O)=O` in your answer.
[A] 0.15

[Q] Tell me measured viability increase for `COCCNC(=O)CN1C(=O)CC(C)(C)S(=O)(=O)c2ccccc21` please.
[A] 1.42

[Q] For the molecule `c1nc(N2CCNCC2)c2sc3nc(N4CCOCC4)c4c(c3c2n1)CCC4` , give its measured viability increase value.
[A] -6.75

[Q] Specify measured viability increase for `COc1ccc(NC2=C(C)C(=O)CC2)cc1` .
[A] -4.82

[Q] Give recorded viability increase. O=C1C(O)CC2c3ccccc3CC3(CCCC3)N12 (stereo unspecified)
[A] -0.65
